Test system: UO-31 renal
Assay: NCI tumour cell line growth inhibition, 48 h
attribute-measured: log10(TGI) (log10 of the value in µM)
Note the log scale: values are log10 of TGI expressed in µM.

Task item: Please look up its log10(TGI): Cc1ccc(S(=O)(=O)N2CCC[C@@H]2C(=O)O[C@@H]2CCC3CC=CC32)cc1 (stereo not given in full)
Reply: 1.62

Task item: Please look up its log10(TGI): COc1cc(C2c3cc4c(cc3OC(NNc3ccccc3)C2C)OCO4)cc(OC)c1OC (stereo not given)
Reply: 0.83

Task item: Please look up its log10(TGI): O=C1CC(/C=C/c2ccco2)=C(O)C1=O
Reply: 1.79

Task item: Please look up its log10(TGI): CN1CCN(C(=O)[C@@]2(C)CC[C@]3(C)CC[C@]4(C)C(=CC[C@@H]5[C@@]6(C)CCC(=O)NC(C)(C)[C@@H]6CC[C@]54C)[C@@H]3C2)CC1
Reply: 0.40

Task item: Please look up its log10(TGI): CN(C)Cc1c(O)ccc2c1c1c(n2C)C(=O)c2ccccc2C1=O
Reply: 1.57

* * *

Tested on: HCT-116 colon
Assay: NCI tumour cell line growth inhibition, 48 h
attribute-measured: TGI

COC(=O)Nc1nc2ccc(S(=O)(=O)Nc3ccccn3)cc2[nH]1: > 100 µM
CCc1ccccc1NC(=O)C(=O)C(C#N)c1ccccc1Cl (configuration not stated): > 100 µM
[O-]/N=[N+](/[O-])C1CCCCC1=[N+]1CCOCC1 (configuration not stated): > 100 µM

Task item: Please look up its TGI: CN(C)C1CCN(Cc2ccc(NC(=O)c3cncc(C#Cc4cnc(N)c5ncccc45)c3)cc2C(F)(F)F)CC1
Reply: 18 µM

Task item: Please look up its TGI: COc1ccc(-c2coc3cc(O)ccc3c2=O)cc1
Reply: > 100 µM

Task item: Please look up its TGI: CC(=O)OCC1OC(n2cnc3nc(Br)[nH]c(=O)c32)C(OC(C)=O)C1OC(C)=O (configuration not stated)
Reply: > 100 µM

* * *

Test system: IGROV1 ovarian
Test: NCI tumour cell line growth inhibition, 48 h
Recorded TGI, one value per entry.

Below: 5 molecules and their reported TGI.
CC(=O)C(=O)NC1/C=C(C)\C=C/C(O)C/C=C(C)\C=C/C(O)CC2OC(=O)C1(C)C(=O)C2C (configuration not stated): > 100 µM
COC1OCC(O)C(NC(=O)N(C)N=O)C1O (configuration not stated): > 100 µM
COC(=O)C1CSC(c2csc(CCN)n2)=N1 (configuration not stated): > 100 µM
Cc1cc2nc3c(C#N)c4c(c(Nc5ccc(F)cc5)n3c2cc1C)CCC4: > 100 µM
O=C(CN1CCCC1=O)CS(=O)(=O)c1ccccc1: > 100 µM

Task item: Please look up its TGI: O=C(Cc1ccccc1[N+](=O)[O-])C(CO)c1ccccc1[N+](=O)[O-] (configuration not stated)
Reply: > 100 µM

Task item: Please look up its TGI: O=C1Nc2ccccc2/C1=C\c1c(-c2ccccc2)nc2sccn12
Reply: > 54.2 µM

* * *

Tested on: NCI-H460 lung
Experiment: NCI tumour cell line growth inhibition, 48 h
attribute-measured: TGI

Below: 5 molecules and their reported TGI.
O=C(NC(=Nc1ccccc1)SCSC(=Nc1ccccc1)NC(=O)c1ccco1)c1ccco1: > 100 µM
[O-]/N=[N+](/[O-])C1CCCCC1=[N+]1CCOCC1 (configuration not stated): > 100 µM
Cc1cc(Cl)nc2ccc(Cc3ccc4nc(Cl)cc(C)c4c3)cc12: > 100 µM
Cn1cnc(N2CCCC2)c(C#N)c1=S: > 100 µM
COc1ccc2c(c1)N(Cc1ccc(Cl)cc1)CCC2N1CCCC1=O (configuration not stated): > 100 µM

Task item: Please look up its TGI: CC(C)(C)COC(=O)C(C)(C)NC(=O)C(CC(=O)OCc1ccccc1)NC(=O)OCc1ccccc1 (configuration not stated)
Reply: > 100 µM

Task item: Please look up its TGI: CC#C[C@]1(O)CCC2[C@@H]3CCC4=CC(=O)CCC4=C3[C@@H](c3ccc(N(C)C)cc3)C[C@@]21C (some centres not stated)
Reply: 28.3 µM

Task item: Please look up its TGI: COc1ccc(Nc2nc3cc(C(F)(F)F)ccc3nc2-c2ccccc2)cc1OC
Reply: > 100 µM

Task item: Please look up its TGI: N#CCCN(CCC#N)c1ccc(/C=C(/NC(=O)c2cc([N+](=O)[O-])ccc2Cl)C(=O)NN)cc1
Reply: > 100 µM

Task item: Please look up its TGI: COC(=O)[C@H](CC(C)C)NC(=O)[C@H](Cc1ccccc1)N1CC2C=CC1C2 (some centres not stated)
Reply: > 100 µM

Task item: Please look up its TGI: CC(C)C(Nc1ncnc2nc[nH]c12)C(=O)O (configuration not stated)
Reply: > 100 µM

Task item: Please look up its TGI: CC(C)OP(=S)(NC(=S)c1ccccc1)OC(C)C
Reply: > 100 µM

Task item: Please look up its TGI: COc1cccc2c1OC1Sc3ccccc3-c3nn(-c4ccccc4)c-2c31 (configuration not stated)
Reply: > 100 µM

Task item: Please look up its TGI: O=C1/C(=C/c2ccc([N+](=O)[O-])s2)Oc2cc(Cl)ccc21
Reply: > 100 µM

Task item: Please look up its TGI: Cc1ccccc1C1=C(c2cn(C)c3ccccc23)C(=O)NC1=O
Reply: > 25 µM

Task item: Please look up its TGI: COC(=O)C1CSC(c2csc(CCN)n2)=N1 (configuration not stated)
Reply: > 100 µM

Task item: Please look up its TGI: Clc1ccc(CCNC2(c3cc4ccccc4s3)CCCCC2)cc1Cl
Reply: 40.3 µM

Task item: Please look up its TGI: O=C1C=C(Nc2ccccc2C(=O)CC(=O)C(=O)Nc2ccc(Cl)cc2)c2ccccc2C1=O
Reply: 34.7 µM

Task item: Please look up its TGI: O=C(Cc1ccccc1[N+](=O)[O-])C(CO)c1ccccc1[N+](=O)[O-] (configuration not stated)
Reply: > 100 µM
